Data provenance: paper PMC9741652

Target: ZER1 (residues 469–766) N553A (human, UniProt Q7Z7L7 469-766, N553A)
Sequence (Q7Z7L7 other isoform, or with tags, fused parts or gaps N553A | N553A): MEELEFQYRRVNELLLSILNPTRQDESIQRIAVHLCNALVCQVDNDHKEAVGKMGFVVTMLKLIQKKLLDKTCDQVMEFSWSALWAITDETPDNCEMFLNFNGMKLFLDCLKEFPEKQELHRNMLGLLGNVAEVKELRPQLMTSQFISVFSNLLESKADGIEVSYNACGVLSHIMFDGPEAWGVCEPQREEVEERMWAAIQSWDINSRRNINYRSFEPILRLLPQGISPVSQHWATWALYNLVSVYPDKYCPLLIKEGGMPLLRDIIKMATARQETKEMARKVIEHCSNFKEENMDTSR
Assay: ITC
pKd: −log10 of the molar value.
reported.metric: pKd

[[record]]
binder = "SFLHVGQD (N-terminus MEEL read as start Met plus native residues from 469; His tag left out) [SFLHVGQD peptide]"
recorded_result = 5.15

